Entries and their LD50
test: in vivo; details: rat, iv
Counter-ions that a name gives are not always drawn.
reported property: LD50 (mg/kg)

compound="Cc1ccccc1OCC(O)CNCCOc1ccc(C(N)=O)cc1 (centres unmarked) [Tolamolol, reference compound]" reported_property=LD50 unit_symbol=mg/kg experimental_result=133
compound="Cc1cccc(C)c1NCCNCC(O)COc1ccccc1 (centres unmarked) [Example 7, hydrochloride]" reported_property=LD50 unit_symbol=mg/kg experimental_result=32
compound="OC(CNCCNc1ccccc1Cl)COc1ccccc1 (centres unmarked)" reported_property=LD50 unit_symbol=mg/kg experimental_result=21
compound="O=[N+]([O-])c1cccc(NCCNCC(O)COc2ccccc2)c1 (centres unmarked)" reported_property=LD50 unit_symbol=mg/kg experimental_result=44
compound="Nc1cccc(NCCNCC(O)COc2ccccc2)c1 (centres unmarked) [Example 17, trihydrochloride]" reported_property=LD50 unit_symbol=mg/kg experimental_result=66

###

Entries and their dp/dt max, percent change from initial value, left ventricle
test system: cat; assay: β-mimetic effect on contractility and cardiac frequency in anesthetized cat; type: in vivo; conditions: D 0.01 mg/kg i.v., HCl salt
Where a name gives a salt, the structure may show the parent alone.
reported property: dp/dt max, percent change from initial value, left ventricle

compound="O=[N+]([O-])c1cccc(NCCNCC(O)COc2ccccc2)c1 (stereo not shown) [Example 16]" experimental_result=+57%
compound="Cc1cccc(C)c1NCCNCC(O)COc1ccccc1 (stereo not shown) [Example 7, hydrochloride]" experimental_result=+104%
compound="OC(CNCCNc1ccccc1Cl)COc1ccccc1 (stereo not shown) [Example 1]" experimental_result=+59%
compound="Nc1cccc(NCCNCC(O)COc2ccccc2)c1 (stereo not shown) [Example 17, trihydrochloride]" experimental_result=+84%
